Listed here are compounds together with their documented inhibition.
- tested_on: Protein deacetylase HDAC6 (Homo sapiens) (UniProt Q9UBN7)
- Sequence (Q9UBN7 whole entry): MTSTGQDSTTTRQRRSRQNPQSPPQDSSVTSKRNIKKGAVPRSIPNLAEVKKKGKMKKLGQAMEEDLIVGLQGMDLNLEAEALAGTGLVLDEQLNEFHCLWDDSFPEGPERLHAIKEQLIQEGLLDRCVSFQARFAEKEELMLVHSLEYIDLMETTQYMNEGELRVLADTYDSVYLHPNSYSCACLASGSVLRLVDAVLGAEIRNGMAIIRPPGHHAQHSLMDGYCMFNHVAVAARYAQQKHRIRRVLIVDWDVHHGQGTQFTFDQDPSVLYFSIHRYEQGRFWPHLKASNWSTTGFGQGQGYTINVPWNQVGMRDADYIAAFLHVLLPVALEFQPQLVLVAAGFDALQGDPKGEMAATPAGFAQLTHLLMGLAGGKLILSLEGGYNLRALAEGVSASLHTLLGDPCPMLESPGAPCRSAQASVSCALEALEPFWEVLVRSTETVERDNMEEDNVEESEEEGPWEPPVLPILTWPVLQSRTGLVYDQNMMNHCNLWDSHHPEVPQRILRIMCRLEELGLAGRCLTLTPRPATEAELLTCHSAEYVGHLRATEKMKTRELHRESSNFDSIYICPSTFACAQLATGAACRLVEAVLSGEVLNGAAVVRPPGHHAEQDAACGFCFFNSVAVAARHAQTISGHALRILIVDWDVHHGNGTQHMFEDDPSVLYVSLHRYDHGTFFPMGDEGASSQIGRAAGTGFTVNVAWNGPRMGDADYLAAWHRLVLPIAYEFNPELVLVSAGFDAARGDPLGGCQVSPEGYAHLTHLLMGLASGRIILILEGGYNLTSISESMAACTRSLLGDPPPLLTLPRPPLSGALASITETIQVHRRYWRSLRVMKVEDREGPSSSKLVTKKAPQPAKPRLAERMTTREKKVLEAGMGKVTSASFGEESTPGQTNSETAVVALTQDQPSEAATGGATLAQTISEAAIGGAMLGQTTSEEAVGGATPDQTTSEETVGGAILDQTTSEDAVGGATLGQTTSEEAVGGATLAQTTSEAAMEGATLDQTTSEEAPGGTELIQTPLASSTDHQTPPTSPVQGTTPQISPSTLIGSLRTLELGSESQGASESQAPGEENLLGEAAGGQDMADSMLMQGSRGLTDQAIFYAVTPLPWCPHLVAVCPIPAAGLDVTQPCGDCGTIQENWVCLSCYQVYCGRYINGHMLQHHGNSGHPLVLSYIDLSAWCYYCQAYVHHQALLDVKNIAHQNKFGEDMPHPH
- study_conditions: at 10 µM
assay_readout: inhibition (%)

compound: Cc1ccc(OCCSc2ncccn2)c(Br)c1
value_measured: 98.8

compound: COC(=O)CC1CC(c2ccc(O)cc2)=NO1 (configuration not stated)
value_measured: 79.7

compound: NC(=O)c1cccc(-c2cccc(OC(=O)NC3CCCCC3)c2)c1 [URB-597]
value_measured: 93

compound: CN(Cc1ccccc1)C(=O)[C@H](Cc1ccc2ccccc2c1)NC(=O)[C@@H]1C[C@@H](O)CN1C(=O)c1cn(C)c2ccccc12
value_measured: 6.39

compound: O=C1NC(=S)NC(=O)C1C(=O)Nc1ccccc1 [MERBARONE]
value_measured: 97

compound: Cc1cc(NCCO)nc(-c2ccc(Br)cc2)n1
value_measured: 64.4

compound: C#Cc1cccc(Nc2ncnc3cc(OC)c(OCCCCCCC(=O)NO)cc23)c1 [CUDC-101]
value_measured: 79.5
